Attribution: ChEMBL document CHEMBL3433997

biological target: Glucose transporter (Leishmania mexicana); assay: ST_JUDE_LEISH: Cytotoxicity at 2uM final concentration against transgenic Leishmania Mexicana promastigotes LmGT2 that are glucose transport deficient and complemented with the L. Mexicana glucose transporter 2. Activity is measured by DNA content using SYBR green in vitro; assay type: functional
Endpoint: inhibition
Entry format: amount then unit.

inhibition value, target or system Glucose transporter (Leishmania mexicana), for CCCCOc1ccc(C(O)C(CN2CCCCC2)c2ccccc2)cc1 (stereo not drawn) : 0.33%

inhibition value, target or system Glucose transporter (Leishmania mexicana), for Cc1cccc(C)c1CNc1nc(N2CCOCC2)cc2c(C)c(C)[nH]c12 : 4.38%

inhibition value, target or system Glucose transporter (Leishmania mexicana), for Cc1cc(N(C)C)nc(Nc2ccc(NC(=O)C3CCCCC3)cc2)n1 : 3.75%

* * *

target: Hexose transporter 1 (Plasmodium falciparum); assay: ST_JUDE_LEISH: Cytotoxicity at 2uM final concentration against transgenic Leishmania Mexicana promastigotes LmPfHT that are glucose transport deficient and complemented with the Plasmodium falciparum hexose transporter. Activity is measured by DNA content using SYBR green in vitro; assay type: functional
Reported inhibition values for the following compounds.
Number in %, nothing else.

Compound	Endpoint	Measured
CO/C(=C\C=C\c1cc2cc(Cl)c(Cl)cc2[nH]1)C(=O)NC1CC2CCCC(C1)N2C (stereo not given)	inhibition	0.66
Cc1cccc2nc(-c3cccc(-c4cccc(CN5CCN(c6ccc(C#N)cn6)CC5)c4)c3)[nH]c12	inhibition	10.3
Nc1c2c(nc3cc(NC(=O)c4ccc([N+](=O)[O-])cc4)ccc13)CCCC2	inhibition	9.51
Cc1nc(C)c(-c2ccc(Oc3ccc(Cl)cc3)cc2)c(O)c1I	inhibition	0.57

Now, please, on to the next compound.
Recorded result, CC(C)n1nc(C(=O)N2CCN(c3ccccc3)CC2)c2ccccc2c1=O , inhibition: -0.42

* * *

biological target: Hexose transporter 1 (Plasmodium falciparum) (UniProt O97467); experiment: ST_JUDE_LEISH: Cytotoxicity at 2uM final concentration against transgenic Leishmania Mexicana promastigotes LmPfHT that are glucose transport deficient and complemented with the Plasmodium falciparum hexose transporter. Activity is measured by DNA content using SYBR green in vitro; assay type: functional
Reported inhibition values for the following compounds.
Number in %, nothing else.

Compound	Measured
Cc1cc(NCCc2ccccc2)nc(NC(=N)Nc2cccc([N+](=O)[O-])c2)n1	10.5
O=C(c1ccc(Cl)cc1)N1CCOC(CCN2CCC(c3ccccc3)CC2)(c2ccc(Cl)c(Cl)c2)C1 (stereo not given)	-0.89

Now, please, on to the next compound.
Recorded result, COc1ccc(NC2=C(c3ccccc3)C(=O)c3ccccc32)cn1 , inhibition: 4.66

* * *

target: Glucose transporter (Leishmania mexicana); assay: ST_JUDE_LEISH: Cytotoxicity at 2uM final concentration against transgenic Leishmania Mexicana promastigotes LmGT2 that are glucose transport deficient and complemented with the L. Mexicana glucose transporter 2. Activity is measured by DNA content using SYBR green in vitro; type: functional
Endpoint: inhibition (%)
Number in %, nothing else.

Compound	inhibition [%]
CCC(C(C)C)n1ccc2c3c(N)nc(N)nc3ccc21 (stereo unspecified)	66.6

inhibition value, target or system Glucose transporter (Leishmania mexicana), for O=C1CCCN1CCCNCc1cccc(-c2ccc(-c3nc4cc(C(F)(F)F)ccc4[nH]3)cc2)c1 : 13

inhibition value, target or system Glucose transporter (Leishmania mexicana), for COc1ccc(Nc2nccc(NCC(O)c3cccc(C(F)(F)F)c3)n2)cc1 (stereo unspecified) : -1.44

inhibition value, target or system Glucose transporter (Leishmania mexicana), for COc1ccc(NC(=O)Nc2nc(-c3ccc(Cl)c(C)c3)cs2)cc1N1CCN(C)CC1 : 2.63

inhibition value, target or system Glucose transporter (Leishmania mexicana), for COc1ccc2ncc(F)c([C@@H](O)CN3CCC(NCc4cc5c(cn4)OCS5)CC3)c2c1 : 4.52

inhibition value, target or system Glucose transporter (Leishmania mexicana), for FC(F)(F)c1cccc(CNCCCCCNCc2ccc(Cl)cc2)c1 : -0.19

inhibition value, target or system Glucose transporter (Leishmania mexicana), for COc1ccc2nccc([C@@H](O)CN3CCC(NCc4cc5ccc(C#N)cc5[nH]4)CC3)c2c1 : 9.02

inhibition value, target or system Glucose transporter (Leishmania mexicana), for CCCC(C)n1ccc2c3c(N)nc(N)nc3ccc21 (stereo unspecified) : 29.7

inhibition value, target or system Glucose transporter (Leishmania mexicana), for O=C(Nc1ccc(Cl)cc1)c1cc(Cl)cc2nc(C(F)(F)F)[nH]c12 : 9.44

inhibition value, target or system Glucose transporter (Leishmania mexicana), for COc1ccc(OC)c(Cc2c(C)nc3nc(N)nc(N)c3c2C)c1 : -3.07

inhibition value, target or system Glucose transporter (Leishmania mexicana), for CC(Sc1nc2sccc2c(=O)n1C)C(=O)Nc1ccc2c(c1)OCO2 (stereo unspecified) : 3

* * *

target: Glucose transporter (Leishmania mexicana); experiment: ST_JUDE_LEISH: Cytotoxicity at 2uM final concentration against transgenic Leishmania Mexicana promastigotes LmGT2 that are glucose transport deficient and complemented with the L. Mexicana glucose transporter 2. Activity is measured by DNA content using SYBR green in vitro; format: functional
Reported inhibition values for the following molecules.
Number in %, nothing else.

Solved cases (8 shown):
Molecule	Endpoint	Measured
COCCN(CCOC)c1ncc(-c2ccsc2)c(-c2nc(C)c(C)s2)n1	inhibition	1.83
COc1ccccc1N1CCN(CCCCNC(=O)c2ccc(NC(=O)c3ccc(C(F)(F)F)cc3)cc2)CC1	inhibition	-0.69
N=C(N)NC(=O)Nc1cc(Br)c(Cl)c(Br)c1	inhibition	-1.76
O=C(Nc1ccccc1Cl)c1cc2ccccc2cc1O	inhibition	-0.43
O=C(Nc1ccc2c(c1)CCC2)c1ccc(CN2CCCN(Cc3cccc(O)c3)CC2)cc1	inhibition	9.95
N#Cc1ccc(-c2ccc(C(=O)NC3CCN(CCN4CCc5c(cccc5C(F)(F)F)C4)CC3)cc2)cc1	inhibition	1.46
Cn1nc(-c2cccc(CN[C@@H]3CCc4ccc(O)cc43)c2)c2cnc(NCCCN3CCCC3)nc21	inhibition	4.3
COC(=O)c1cccc(CNCc2ccc(-c3ccc(-c4nc5cccc(C)c5[nH]4)s3)cc2)c1	inhibition	1.56

Recorded result, COc1ccc(-c2nc3cc4ccccc4nc3[nH]2)c(OCC(O)CNC(C)C)c1 (stereo not given) , inhibition: 1.21

Recorded result, COc1ccc2nccc([C@@H](O)CN3CCC(NC(=O)C(=Cc4ccc(Cl)cc4Cl)c4ccc(-c5ccccc5)cc4)CC3)c2c1 , inhibition: 4.7

Recorded result, C=Cc1ccc(-c2c(C)[nH]c(C)c(Br)c2=O)cc1 , inhibition: -0.92

Recorded result, CC(C)c1ccc(NC(=O)c2ccc(C(=O)NC3CCN(CC4CCCCC4)CC3)cc2)cc1 , inhibition: 0.52

* * *

Reported inhibition values for the following molecules.
target: Glucose transporter (Leishmania mexicana); test: ST_JUDE_LEISH: Cytotoxicity at 2uM final concentration against transgenic Leishmania Mexicana promastigotes LmGT2 that are glucose transport deficient and complemented with the L. Mexicana glucose transporter 2. Activity is measured by DNA content using SYBR green in vitro; type: functional
Number in %, nothing else.

Solved cases (4 shown):
Molecule	inhibition, %
CCOC(=O)N1CCC(NC(=O)c2ccc(C(C)(C)C)cc2OC)CC1	3.13
c1cc(C2=NC3CCCCC3N2)ccc1OCCCCCOc1ccc(C2=NC3CCCCC3N2)cc1 (centres undefined)	1.28
Cc1ccc(CCC(C)NCC(O)c2cccc(Cl)c2)cc1 (centres undefined)	11.1
Ic1cc(Nc2ncnc3ccsc23)ccc1OCc1ccccc1	0.81

Recorded result, COc1cc(Cc2cnc(N)nc2N)cc(OCCCCC2NC(=O)NC2=O)c1OC (centres undefined) , inhibition: 11.6

Recorded result, N#Cc1ccc(N(CCOc2ccc3c(c2)CCC(=O)N3)Cc2ccccc2C(F)(F)F)cc1C(F)(F)F , inhibition: 5.81

* * *

target: Glucose transporter (Leishmania mexicana); test: ST_JUDE_LEISH: Cytotoxicity at 2uM final concentration against transgenic Leishmania Mexicana promastigotes LmGT2 that are glucose transport deficient and complemented with the L. Mexicana glucose transporter 2. Activity is measured by DNA content using SYBR green in vitro; format: functional
Reported inhibition values for the following compounds.
Number in %, nothing else.

Solved cases (3 shown):
Compound	Target or test system	inhibition / %
CCCCCCN1CCN(Cc2cccc(NC(=O)c3cc4ccccc4s3)c2)CC1	Glucose transporter (Leishmania mexicana)	2.42
CCOc1ccc(-c2nonc2NC(=O)CC(C)C)cc1OCC	Glucose transporter (Leishmania mexicana)	-1.25
CC1(C)NC(N)=NC(=N)N1OCc1cc(Cl)cc2c1OCOC2	Glucose transporter (Leishmania mexicana)	0.71

Recorded result, OC(CNc1ccnc(Nc2ccccc2)n1)c1cccc(C(F)(F)F)c1 (centres undefined) , inhibition: 0.68

Recorded result, COc1cc2ncnc(Nc3ccc(OCc4ccccc4Br)c(Cl)c3)c2cc1OC , inhibition: 6.38

Recorded result, CCC[C@@H](C(=O)NCCc1cccc(OC)c1)N1C(=O)c2c(ccc(OC)c2OC)C1C(=O)Nc1c(C)cccc1C (some centres undefined) , inhibition: 0.1

Recorded result, Cc1cccc2nc(-c3cccc(-c4ccc(NC(=O)Nc5ccc(Cl)c(Cl)c5)cc4)c3)[nH]c12 , inhibition: 1.91

Recorded result, O=C(/C=C/c1ccc(Cl)c(Cl)c1)NCCCCCN1CCCC(C(=O)Nc2cccc(Cl)c2)C1 (centres undefined) , inhibition: 1.07

Recorded result, CC(C)(CNC(=O)[C@@H]1CCCN(CCOc2ccc(Cl)cc2)C1)c1nc(-c2ccc(Cl)c(O)c2)c(-c2ccncc2)[nH]1 , inhibition: 0.11
